meta.source: patent US20250304620A1

- Tested on: Pseudomonas aeruginosa ATCC 27853
- assay_comment: Injectable formulations on mice infected with peritonitis
- Format: in vivo, ICR mice
- experimental_context: 5 mg/kg via tail vein, twice a day for 3 days, n = 10
Non-standard residues stand in square brackets, D forms with d. Residues, ends and D or L forms follow the SMILES beside them. dPhe(3,4-F2) = N[C@H](Cc1ccc(F)c(F)c1)C(=O)O; d2Nal = N[C@H](Cc1ccc2ccccc2c1)C(=O)O; dNle = CCCC[C@@H](N)C(=O)O
result_type: Number of mice that died on each day after infection: day 1 (Mouse)
Numbers only, in Mouse.

Below: 2 molecules and their reported Number of mice that died on each day after infection: day 1.
molecule	target_or_test_system	experimental_result
CC(=O)N[C@H](CCCNC(=N)N)C(=O)N[C@H](CCCCN)C(=O)N[C@H](CC(C)C)C(=O)N[C@H](CC(C)C)C(=O)N[C@H](Cc1ccccc1)C(=O)N[C@H](CCCNC(=N)N)C(=O)N[C@H](CC(C)C)C(=O)N[C@H](CCCCN)C(=O)N[C@H](Cc1ccccc1)C(=O)N[C@H](CCCNC(=N)N)C(=O)N[C@H](CCCCN)C(N)=O [LV-2] (Ac-[dR][dK][dL][dL][dF][dR][dL][dK][dF][dR][dK]-NH2)	Pseudomonas aeruginosa ATCC 27853	1
CC(=O)N[C@H](CCCNC(=N)N)C(=O)N[C@H](CCCNC(=N)N)C(=O)N[C@H](CC(C)C)C(=O)N[C@H](CC(C)C)C(=O)N[C@H](Cc1ccc2ccccc2c1)C(=O)N[C@H](CCCNC(=N)N)C(=O)N[C@H](CC(C)C)C(=O)N[C@H](CCCNC(=N)N)C(=O)N[C@H](Cc1ccc2ccccc2c1)C(=O)N[C@H](CCCNC(=N)N)C(=O)N[C@H](CCCNC(=N)N)C(N)=O [LV-1] (Ac-[dR][dR][dL][dL][d2Nal][dR][dL][dR][d2Nal][dR][dR]-NH2)	Pseudomonas aeruginosa ATCC 27853	2

Report Number of mice that died on each day after infection: day 1 for every entry below.
1. CC(=O)N[C@H](CCCNC(=N)N)C(=O)N[C@H](CCCCN)C(=O)N[C@H](CC(C)C)C(=O)N[C@H](CC(C)C)C(=O)N[C@H](Cc1ccc(F)c(F)c1)C(=O)N[C@H](CCCCN)C(=O)N[C@H](CC(C)C)C(=O)N[C@H](CCCCN)C(=O)N[C@H](Cc1ccc(F)c(F)c1)C(=O)N[C@H](CCCCN)C(=O)N[C@H](CCCNC(=N)N)C(N)=O [LV-6] (Ac-[dR][dK][dL][dL][dPhe(3,4-F2)][dK][dL][dK][dPhe(3,4-F2)][dK][dR]-NH2)
2. CC(=O)N[C@H](CCCCN)C(=O)N[C@H](CCCCN)C(=O)N[C@H](CC(C)C)C(=O)N[C@H](CC(C)C)C(=O)N[C@H](Cc1ccc2ccccc2c1)C(=O)N[C@H](CCCCN)C(=O)N[C@H](CC(C)C)C(=O)N[C@H](CCCCN)C(=O)N[C@H](Cc1ccc2ccccc2c1)C(=O)N[C@H](CCCCN)C(=O)N[C@H](CCCCN)C(N)=O [LV-17] (Ac-[dK][dK][dL][dL][d2Nal][dK][dL][dK][d2Nal][dK][dK]-NH2)
3. CCCC[C@@H](NC(=O)[C@@H](CCCCN)NC(=O)[C@@H](CCCNC(=N)N)NC(C)=O)C(=O)N[C@H](CCCC)C(=O)N[C@H](Cc1ccc2ccccc2c1)C(=O)N[C@H](CCCNC(=N)N)C(=O)N[C@H](CCCC)C(=O)N[C@H](CCCCN)C(=O)N[C@H](Cc1ccc2ccccc2c1)C(=O)N[C@H](CCCNC(=N)N)C(=O)N[C@H](CCCCN)C(N)=O [LV-12] (Ac-[dR][dK][dNle][dNle][d2Nal][dR][dNle][dK][d2Nal][dR][dK]-NH2)

Result block:
1: 1; 2: 0; 3: 0

* * *

- Test system: Pseudomonas aeruginosa ATCC 27853
- assay_comment: Injectable formulations on mice infected with peritonitis
- Type: in vivo, ICR mice
- experimental_context: 1 mg/kg via tail vein, twice a day for 3 days, n = 10
Non-standard residues stand in square brackets, D forms with d. Residues, ends and D or L forms follow the SMILES beside them. d2Nal = N[C@H](Cc1ccc2ccccc2c1)C(=O)O
result_type: Number of mice that died on each day after infection: day 1 (Mouse)
Answers are plain numbers, in Mouse.

Worked examples, 2 molecules total:
molecule	target_or_test_system	experimental_result
CC(=O)N[C@H](CCCCN)C(=O)N[C@H](CCCCN)C(=O)N[C@H](CC(C)C)C(=O)N[C@H](CC(C)C)C(=O)N[C@H](Cc1ccc2ccccc2c1)C(=O)N[C@H](CCCNC(=N)N)C(=O)N[C@H](CC(C)C)C(=O)N[C@H](CCCCN)C(=O)N[C@H](Cc1ccc2ccccc2c1)C(=O)N[C@H](CCCNC(=N)N)C(=O)N[C@H](CCCCN)C(N)=O [LV-19] (Ac-[dK][dK][dL][dL][d2Nal][dR][dL][dK][d2Nal][dR][dK]-NH2)	Pseudomonas aeruginosa ATCC 27853	0
CC(=O)N[C@H](CCCNC(=N)N)C(=O)N[C@H](CCCCN)C(=O)N[C@H](CC(C)C)C(=O)N[C@H](CC(C)C)C(=O)N[C@H](Cc1ccccc1)C(=O)N[C@H](CCCNC(=N)N)C(=O)N[C@H](CC(C)C)C(=O)N[C@H](CCCCN)C(=O)N[C@H](Cc1ccccc1)C(=O)N[C@H](CCCNC(=N)N)C(=O)N[C@H](CCCCN)C(N)=O [LV-2] (Ac-[dR][dK][dL][dL][dF][dR][dL][dK][dF][dR][dK]-NH2)	Pseudomonas aeruginosa ATCC 27853	0

Per the reported Pseudomonas aeruginosa ATCC 27853 data, CC(=O)N[C@H](CCCNC(=N)N)C(=O)N[C@H](CCCCN)C(=O)N[C@H](C)C(=O)N[C@H](C)C(=O)N[C@H](Cc1ccc2ccccc2c1)C(=O)N[C@H](CCCNC(=N)N)C(=O)N[C@H](C)C(=O)N[C@H](CCCCN)C(=O)N[C@H](Cc1ccc2ccccc2c1)C(=O)N[C@H](CCCNC(=N)N)C(=O)N[C@H](CCCCN)C(N)=O [LV-15] (Ac-[dR][dK][dA][dA][d2Nal][dR][dA][dK][d2Nal][dR][dK]-NH2) has Number of mice that died on each day after infection: day 1 of 1

* * *

- Tested on: rabbit red blood cells
- Format: cell-based
- experimental_context: red cells of rabbit, 1 h
Non-standard residues stand in square brackets, D forms with d. Residues, ends and D or L forms follow the SMILES beside them. 2Nal = N[C@@H](Cc1ccc2ccccc2c1)C(=O)O; d2Nal = N[C@H](Cc1ccc2ccccc2c1)C(=O)O
result_type: MHC (minimum hemolytic concentration, lowest concentration causing 10% hemolysis)

compound	experimental_result
CC(=O)N[C@@H](CCCNC(=N)N)C(=O)N[C@@H](CCCCN)C(=O)N[C@H](C(=O)N[C@H](C(=O)N[C@@H](Cc1ccc2ccccc2c1)C(=O)N[C@@H](CCCNC(=N)N)C(=O)N[C@H](C(=O)N[C@@H](CCCCN)C(=O)N[C@@H](Cc1ccc2ccccc2c1)C(=O)N[C@@H](CCCNC(=N)N)C(=O)N[C@@H](CCCCN)C(N)=O)C(C)C)C(C)C)C(C)C [LV-46] (Ac-RKVV[2Nal]RVK[2Nal]RK-NH2)	>1000 µg/mL

Lab note: next compound to report on.
Just so you know, measured MHC (minimum hemolytic concentration, lowest concentration causing 10% hemolysis) for CC(=O)N[C@H](CCCNC(=N)N)C(=O)N[C@H](CCCCN)C(=O)N[C@@H](C(=O)N[C@@H](C(=O)N[C@H](Cc1ccc2ccccc2c1)C(=O)N[C@H](CCCNC(=N)N)C(=O)N[C@@H](C(=O)N[C@H](CCCCN)C(=O)N[C@H](Cc1ccc2ccccc2c1)C(=O)N[C@H](CCCNC(=N)N)C(=O)N[C@H](CCCCN)C(N)=O)C(C)C)C(C)C)C(C)C [LV-16] (Ac-[dR][dK][dV][dV][d2Nal][dR][dV][dK][d2Nal][dR][dK]-NH2) came out at >1000 µg/mL

* * *

- System: Candida glabrata ATCC 15126
- Type: cell-based
Non-standard residues stand in square brackets, D forms with d. Residues, ends and D or L forms follow the SMILES beside them. dPhe(3,4-Cl2) = N[C@H](Cc1ccc(Cl)c(Cl)c1)C(=O)O; dPhe(4-Cl) = N[C@H](Cc1ccc(Cl)cc1)C(=O)O; dPhe(4-F) = N[C@H](Cc1ccc(F)cc1)C(=O)O
result_type: MIC Candida glabrata ATCC 15126 (µg/mL)
Give bare numbers, in µg/mL.

Known MIC Candida glabrata ATCC 15126 results, listed for orientation:
compound	target_or_test_system	result_type	experimental_result
CC(=O)N[C@H](CCCNC(=N)N)C(=O)N[C@H](CCCCN)C(=O)N[C@H](CC(C)C)C(=O)N[C@H](CC(C)C)C(=O)N[C@H](Cc1ccc(F)cc1)C(=O)N[C@H](CCCCN)C(=O)N[C@H](CC(C)C)C(=O)N[C@H](CCCCN)C(=O)N[C@H](Cc1ccc(F)cc1)C(=O)N[C@H](CCCCN)C(=O)N[C@H](CCCNC(=N)N)C(N)=O [LV-5] (Ac-[dR][dK][dL][dL][dPhe(4-F)][dK][dL][dK][dPhe(4-F)][dK][dR]-NH2)	Candida glabrata ATCC 15126	MIC Candida glabrata ATCC 15126	16
CC(=O)N[C@H](CCCNC(=N)N)C(=O)N[C@H](CCCCN)C(=O)N[C@H](CC(C)C)C(=O)N[C@H](CC(C)C)C(=O)N[C@H](Cc1ccc(Cl)c(Cl)c1)C(=O)N[C@H](CCCCN)C(=O)N[C@H](CC(C)C)C(=O)N[C@H](CCCCN)C(=O)N[C@H](Cc1ccc(Cl)c(Cl)c1)C(=O)N[C@H](CCCCN)C(=O)N[C@H](CCCNC(=N)N)C(N)=O [LV-8] (Ac-[dR][dK][dL][dL][dPhe(3,4-Cl2)][dK][dL][dK][dPhe(3,4-Cl2)][dK][dR]-NH2)	Candida glabrata ATCC 15126	MIC Candida glabrata ATCC 15126	16

// assay Candida glabrata ATCC 15126, entry CC(=O)N[C@H](CCCNC(=N)N)C(=O)N[C@H](CCCCN)C(=O)N[C@H](CC(C)C)C(=O)N[C@H](CC(C)C)C(=O)N[C@H](Cc1ccc(Cl)cc1)C(=O)N[C@H](CCCCN)C(=O)N[C@H](CC(C)C)C(=O)N[C@H](CCCCN)C(=O)N[C@H](Cc1ccc(Cl)cc1)C(=O)N[C@H](CCCCN)C(=O)N[C@H](CCCNC(=N)N)C(N)=O [LV-7] (Ac-[dR][dK][dL][dL][dPhe(4-Cl)][dK][dL][dK][dPhe(4-Cl)][dK][dR]-NH2) , MIC Candida glabrata ATCC 15126 value = 8
